The reported measurements were obtained from ChEMBL document CHEMBL4190372.

Reported values of pIC50 for individual entries
# Target desc: Glucocorticoid receptor (Homo sapiens, UniProt P04150)
# Sequence (P04150 whole entry): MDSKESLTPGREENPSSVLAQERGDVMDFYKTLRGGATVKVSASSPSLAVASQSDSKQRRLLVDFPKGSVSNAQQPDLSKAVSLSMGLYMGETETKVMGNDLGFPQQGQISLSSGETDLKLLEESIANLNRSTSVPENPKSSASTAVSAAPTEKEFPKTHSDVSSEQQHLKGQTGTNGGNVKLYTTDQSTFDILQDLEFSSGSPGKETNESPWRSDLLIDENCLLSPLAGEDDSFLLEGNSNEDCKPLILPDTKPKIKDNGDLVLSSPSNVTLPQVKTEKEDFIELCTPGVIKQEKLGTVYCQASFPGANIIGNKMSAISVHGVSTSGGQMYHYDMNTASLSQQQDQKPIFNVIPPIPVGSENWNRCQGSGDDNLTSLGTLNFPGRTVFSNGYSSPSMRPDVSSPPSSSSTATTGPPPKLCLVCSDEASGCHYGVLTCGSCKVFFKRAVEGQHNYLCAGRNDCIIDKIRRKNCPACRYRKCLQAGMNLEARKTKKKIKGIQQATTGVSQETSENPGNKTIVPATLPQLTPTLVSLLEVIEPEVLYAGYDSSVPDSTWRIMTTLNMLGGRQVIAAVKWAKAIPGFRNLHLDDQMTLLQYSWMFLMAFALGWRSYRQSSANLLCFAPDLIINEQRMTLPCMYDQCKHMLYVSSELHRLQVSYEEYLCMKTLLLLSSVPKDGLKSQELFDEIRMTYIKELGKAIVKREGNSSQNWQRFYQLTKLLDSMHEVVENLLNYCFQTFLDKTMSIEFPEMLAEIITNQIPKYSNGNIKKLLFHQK
Scale explanation: pIC50 corresponds to minus log10 of a concentration expressed in moles per litre.

Use the examples below as a reference point.
* COc1ccc([C@@H](Oc2ccc(C#N)cc2)[C@H](C)NC(=O)C(C)(F)F)cn1 | 7.15
* CC(C)[C@H](NC(=O)C(C)(F)F)[C@H](Oc1ccc2c(cnn2-c2ccc(=O)n(C)c2)c1)c1ccccc1 | 8.15
* CC(C)[C@H](NC(=O)C(C)(F)F)[C@H](Oc1ccc2c(cnn2-c2ccc(=O)n(C)c2)c1)c1cccc(Cl)c1 | 8.77
* COc1ccc([C@@H](Oc2ccc(C#N)cc2Cl)[C@H](C)NC(=O)C(C)(F)F)cn1 | 7.80
* CC(C)[C@H](NC(=O)C(C)(F)F)[C@H](Oc1ccc2c(cnn2-c2cc(C#N)c(=O)n(C)c2)c1)c1ccccc1 | 7.57

// returns reported pIC50 for input CC(C)[C@H](NC(=O)C(C)(F)F)[C@H](Oc1ccc2c(cnn2-c2cc(F)c(=O)n(C)c2)c1)c1ccccc1
8.25

Entry CC(C)[C@H](NC(=O)C(C)(F)F)[C@H](Oc1ccc2c(cnn2-c2cscn2)c1)c1ccccc1 : reported pIC50 = ?
8.48

Which pIC50 value is on record for Cc1ncccc1NC(=O)c1ccc2c(c1)CC[C@@H]1C[C@@](O)(C(F)(F)F)CC[C@@]21Cc1ccccc1 ?
9.16
